As shown below, each of these molecules has a reported MIC Staphylococcus aureus (GC 4545) value.
- Test system: Staphylococcus sp.
- experimental_protocol: in vitro antibacterial evaluation, MIC by broth dilution
- Format: cell-based
- run_conditions: broth dilution, 18 hours at 35° C.; strain GC 4545
Numbered stars: 1 amine (or outer) side, 2 acyl side, 3 side chain; on linkers, the order of the positions; unused ones are H or OH. Square brackets hold non-standard residues; d marks the D form. Peptide text beside a SMILES is read from it. * marks the point of attachment. ξ: configuration not given here. X1 = N=C1NCC(C(O)C(N[*:1])C(=O)[*:2])N1C1OC(CO)C(O)C(O)C1O; ξEnduracididine(βξ-OH,4'ξ) = N=C1NCC(C(O)C(N)C(=O)O)N1; X2 = OCC1OC(OC2C(CO)OC(*)C(O)C2O)C(O)C(O)C1O
recorded_endpoint: MIC Staphylococcus aureus (GC 4545)

| molecule | observed_measurement |
| --- | --- |
| COc1cccc(C2OC3C(OC4C(CO)OC(Oc5ccc(CC6NC(=O)C(C(C)c7ccccc7)NC(=O)CNC(=O)C(CO)NC(=O)C(C(O)C7CNC(=N)N7C7OC(CO)C(O)C(O)C7O)NC(=O)C(C(O)C7CNC(=N)N7)NC6=O)cc5)C(O)C4O)OC(CO)C(O)C3O2)c1 (single isomer, unassigned) [Example 137a] | 32 µg/mL |
| CCCCCNC(=O)OC1C(CO)OC(OC2C(CO)OC(Oc3ccc(CC4NC(=O)C(C(C)c5ccccc5)NC(=O)CNC(=O)C(CO)NC(=O)C(C(O)C5CNC(=N)N5C5OC(CO)C(O)C(O)C5O)NC(=O)C(C(O)C5CNC(=N)N5)NC4=O)cc3)C(O)C2O)C(O)C1O (stereo not shown) | >64 µg/mL |
| N=C1NCC(C(O)C2NC(=O)C(Cc3ccc(OC4OC(CO)C(OC5OC(CO)C(O)C(O)C5O)C(O)C4O)cc3)NC(=O)C(Cc3ccccc3)NC(=O)CNC(=O)C(CO)NC(=O)C(C(O)C3CNC(=N)N3)NC2=O)N1 (stereo not drawn) [Example 296] (cyclo(GFY(X2)[ξEnduracididine(βξ-OH,4'ξ)][ξEnduracididine(βξ-OH,4'ξ)]S); configuration not given here) | >128 µg/mL |
| CC(c1ccccc1)C1NC(=O)CNC(=O)C(CO)NC(=O)C(C(O)C2CNC(=N)N2C2OC(CO)C(O)C(O)C2O)NC(=O)C(C(O)C2CNC(=N)N2)NC(=O)C(Cc2ccc(OC3OC(CO)C(OC4OC5COC(c6ccc(-c7ccsc7)cc6)OC5C(O)C4O)C(O)C3O)cc2)NC1=O (stereo not shown) | 4 µg/mL |
| CC(=O)OCC1OC(OC2C(CO)OC(Oc3ccc(CC4NC(=O)C(C(C)c5ccccc5)NC(=O)CNC(=O)C(CO)NC(=O)C(C(O)C5CNC(=N)N5C5OC(CO)C(O)C(O)C5O)NC(=O)C(C(O)C5CNC(=N)N5)NC4=O)cc3)C(O)C2O)C(O)C(OC(=O)CCC(C)C)C1O (stereo not shown) [Example 270b] | 4 µg/mL |
| CC(c1ccccc1)C1NC(=O)CNC(=O)C(CO)NC(=O)C(C(O)C2CNC(=N)N2C2OC(CO)C(O)C(O)C2O)NC(=O)C(C(O)C2CNC(=N)N2)NC(=O)C(Cc2ccc(OC3OC(CO)C(OC4OC5COC(c6cccc(O)c6)OC5C(O)C4O)C(O)C3O)cc2)NC1=O (stereo not shown) | 16 µg/mL |
| N=C1NCC(C(O)C2NC(=O)C(Cc3ccc(O)cc3)NC(=O)C(Cc3ccccc3)NC(=O)CNC(=O)C(CO)NC(=O)C(C(O)C3CNC(=N)N3C3OC(CO)C(O)C(O)C3O)NC2=O)N1 (stereo not drawn) [Example 279a] (cyclo(GFY[ξEnduracididine(βξ-OH,4'ξ)][X1]S); configuration not given here) | >64 µg/mL |
